molecular target: IRP2 (Homo sapiens, UniProt P48200); construct: isolated IRP2 immobilised on CM5 chip; test: SPR (Biacore T200, CM5 chip, multi-cycle kinetics, […] fit)
Sequence (P48200 whole entry): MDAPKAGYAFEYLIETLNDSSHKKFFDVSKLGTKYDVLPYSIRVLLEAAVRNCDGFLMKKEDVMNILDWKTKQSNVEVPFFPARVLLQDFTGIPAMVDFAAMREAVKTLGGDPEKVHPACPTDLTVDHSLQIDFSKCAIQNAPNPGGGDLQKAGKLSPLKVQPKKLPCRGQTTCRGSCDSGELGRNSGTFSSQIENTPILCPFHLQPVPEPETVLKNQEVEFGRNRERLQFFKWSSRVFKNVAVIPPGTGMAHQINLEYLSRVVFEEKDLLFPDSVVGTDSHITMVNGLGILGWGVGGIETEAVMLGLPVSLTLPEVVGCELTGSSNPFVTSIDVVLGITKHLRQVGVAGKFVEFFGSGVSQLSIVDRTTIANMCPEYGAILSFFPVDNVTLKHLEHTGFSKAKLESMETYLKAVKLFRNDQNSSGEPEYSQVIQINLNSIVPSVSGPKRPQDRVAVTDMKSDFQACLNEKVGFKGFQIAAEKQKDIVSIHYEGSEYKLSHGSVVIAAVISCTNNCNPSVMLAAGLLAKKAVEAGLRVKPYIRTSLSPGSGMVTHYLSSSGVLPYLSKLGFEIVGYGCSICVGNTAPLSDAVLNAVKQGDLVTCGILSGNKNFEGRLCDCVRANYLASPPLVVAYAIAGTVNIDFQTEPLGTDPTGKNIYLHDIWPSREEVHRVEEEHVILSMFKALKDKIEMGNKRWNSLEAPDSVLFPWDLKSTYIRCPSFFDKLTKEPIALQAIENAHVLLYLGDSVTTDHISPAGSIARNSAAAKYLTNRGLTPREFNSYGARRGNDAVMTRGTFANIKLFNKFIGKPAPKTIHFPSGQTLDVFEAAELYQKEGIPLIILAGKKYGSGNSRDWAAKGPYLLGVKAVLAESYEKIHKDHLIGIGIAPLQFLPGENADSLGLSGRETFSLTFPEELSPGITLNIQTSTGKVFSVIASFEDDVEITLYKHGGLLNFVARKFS
Form field: Kd (one value per entry).
Only the number, expressed in µM, is required.

smiles data: COc1ccc(S(=O)(=O)Nc2cccc(C)c2)cc1-c1cnc2[nH]ncc2c1
unit of measure: µM
val: 45.9

Reported Kd of COc1ccc(S(=O)(=O)Nc2cccc(F)c2)cc1-c1cnc2[nH]nc(NC(C)=O)c2c1 : 4.1
